Target or system: PRP Construct (signal peptide + 10 amino acids of Prion protein fused to HaloTag-HiBit) (Homo sapiens, UniProt P61619)
Sequence (P61619 whole entry, looked up, the tested form may be a part): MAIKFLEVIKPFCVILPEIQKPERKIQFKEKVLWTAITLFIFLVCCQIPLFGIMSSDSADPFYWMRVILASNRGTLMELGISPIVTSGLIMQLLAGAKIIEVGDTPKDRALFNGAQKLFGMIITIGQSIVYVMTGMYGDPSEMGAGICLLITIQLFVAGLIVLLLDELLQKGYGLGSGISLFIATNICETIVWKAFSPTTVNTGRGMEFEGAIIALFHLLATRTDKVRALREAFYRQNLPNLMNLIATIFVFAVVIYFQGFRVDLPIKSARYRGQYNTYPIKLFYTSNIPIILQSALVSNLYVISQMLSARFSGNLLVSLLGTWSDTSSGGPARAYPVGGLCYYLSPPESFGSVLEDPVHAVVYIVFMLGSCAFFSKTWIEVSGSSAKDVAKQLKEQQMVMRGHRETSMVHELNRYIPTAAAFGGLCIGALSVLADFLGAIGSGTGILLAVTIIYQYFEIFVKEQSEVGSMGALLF
Assay notes: cell-based
pIC50: −log10 of the molar value.
pIC50: recorded values

- Molecule: "CC(C)OC(C)(C)c1csc(NC(=O)N(C)Cc2ccncc2)n1"
  pIC50: "< 4.52"
- Molecule: "O=C(Nc1ccc(C(=O)c2ccccc2)cc1)Nc1nc([C@H]2CCCN2c2ccccc2)cs1"
  pIC50: "< 4.52"
- Molecule: "CC(C)OC(C)(C)c1csc(NC(=O)[C@H](C)OCc2ccncc2)n1"
  pIC50: "< 4.52"
- Molecule: "O=C(c1ccccc1)c1ccc(Nc2nc([C@H]3CCCN3c3ccccc3)cs2)cc1"
  pIC50: "< 4.52"
- Molecule: "C[C@H](OCc1ccncc1)C(=O)Nc1nc([C@H]2CCCN2c2ccccc2)cs1"
  pIC50: "5.00 to 5.30"
- Molecule: "CC(CNc1ccncc1)C(=O)Nc1nc([C@H]2CCCN2c2ccccc2)cs1 (stereo partly drawn)"
  pIC50: "4.52 to 5.00"
- Molecule: "CC(C)OC(C)(C)c1csc(NC(=O)[C@@H](C)OCc2ccncc2)n1"
  pIC50: "< 4.52"
- Molecule: "CC(C)OC(C)(C)c1csc(Nc2nccc3ccn(Cc4ccncc4)c23)n1"
  pIC50: "4.52 to 5.00"
- Molecule: "O=C(CCOc1ccncc1)Nc1nc([C@H]2CCCN2c2ccccc2)cs1"
  pIC50: "< 4.52"
